- System: NCI-H23
- PROTOCOL SUMMARY: NCI tumour cell line growth inhibition, 48 h
The source made the active and inactive calls. Cut-off read from the data, not from the text of the source: active = GI50 up to about 1.1 µM and inactive = higher.
Give GI50 for every item shown.

MOLECULE | TARGET UNDER TEST | MEASURE NAME | MEASUREMENT
N#CC1C(=O)NC(=O)C1=O (configuration not stated) | NCI-H23 | GI50 | > 100 µM (inactive)
CNc1ccc([N+](=O)[O-])c2c(NCCCN(C)C)ccnc12 | NCI-H23 | GI50 | 99.1 µM (inactive)
Cc1ccc2sc3cc(=O)cc(C)c-3nc2c1 | NCI-H23 | GI50 | 45.3 µM (inactive)

Lab note: each molecule below needs its GI50 filled in.
1. CC(=O)OC1CCn2nnc(CO)c21 (configuration not stated)
2. CC(C)=NNC1=NC(C)(C)P(=O)(NNc2ncccn2)S1 (configuration not stated)

1: > 100 µM (inactive); 2: > 100 µM (inactive)

Answer for every listed entry: what is its GI50? The entries follow.
1. O=c1[nH]c(=O)n(COC(CO)CO)cc1-c1ccccc1
2. O=C(/C=C/c1ccccc1)CSc1nc[nH]n1

1: > 100 µM (inactive); 2: > 100 µM (inactive)

The reported numbers originate from ChEMBL document CHEMBL1201862.
